Each item that follows carries a reported composite z-score.
# Study System: Concanavalin-A (Canavalia ensiformis)
# Protocol Notes: ConA small-molecule binders, primary screen, artefact control for SMM control protein annotation, biochemical, small-molecule microarray, Alexa647 label, 635 nm (AID 1127);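 note: z combines 667 nm emission intensity with signal-to-noise across three replicate slides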
# Particulars: ConA-A647 binding fluorescence, higher = more signal
// return just the number, without any unit appended

>  <Entry Smiles>
COCCCN1C(=O)[C@@]2(Cc3ccccc31)c1ccccc1C(=O)N(Cc1ccccc1C(F)(F)F)[C@H]2c1ccc(CO)cc1

>  <Study System>
Concanavalin-A (Canavalia ensiformis)

>  <composite z-score>
0.961

$$$$
>  <Entry Smiles>
CC(C)C[C@@H]1NC(=O)[C@H]2C[C@@H](C(=O)NCCCCCCN)[C@@H](c3ccc(O)cc3)N2C1=O

>  <Study System>
Concanavalin-A (Canavalia ensiformis)

>  <composite z-score>
1.18

$$$$
>  <Entry Smiles>
C=CCNC(=O)[C@H]1[C@@H]2C(=O)O[C@@H](c3ccccc3)[C@@H](c3ccccc3)N2[C@@H](c2ccc(OCCO)cc2)[C@]12C(=O)Nc1ccc(C#CC3=CCCCC3)cc12

>  <Study System>
Concanavalin-A (Canavalia ensiformis)

>  <composite z-score>
0.994

$$$$

Shifting focus to the molecule that follows.
Task: Query (molecule): `C=CCOC(=O)[C@@H]1[C@H]2C(=O)O[C@H](c3ccccc3)[C@H](c3ccccc3)N2[C@H](c2ccc(OCCOC(=O)[C@@H]3C[C@@H]4C(=O)N[C@@H](CCCCN(C)C)C(=O)N4[C@@H]3c3ccc(O)cc3)cc2)[C@@]12C(=O)Nc1ccc(I)cc12` ; field requested: composite z-score
Result: 1.16

====

In this section we review reported composite z-score values for a set of molecules.
# Protocol Notes: small-molecule microarray binders of probe aDKK1, primary screen, biochemical, biotinylated probe, 635/667 nm fluorescence (AID 1099);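 note: score merges 667nm spot fluorescence with signal to noise across triplicate slides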
# Particulars: higher = more signal
Kindly provide the number alone.

>  <Molecule>
COCCOC(=O)N1C(=O)[C@@]2(c3cc(C#CC4=CCCCC4)ccc31)[C@H](C(N)=O)[C@H]1C(=O)O[C@H](c3ccccc3)[C@H](c3ccccc3)N1[C@@H]2c1ccc(OCCO)cc1

>  <composite z-score>
-0.504

$$$$

Task: Tell me the measured composite z-score of `CCOC(=O)C[C@H]1[C@H](OC(=O)c2ccc(C(=O)c3ccccc3)cc2)[C@@H](NC(=O)c2ccc(-c3ccccc3)cc2)c2cc(OCCCO)ccc2N1C(=O)c1ccccc1` , please.
Result: -0.222

Task: Entry CC1CC/C=C\[C@H]2OC34C=CCN(c5ccc(Cl)cc5)C(=O)[C@H]3N(CCO)C(=O)[C@]4(C)C2C(=O)O1 (some centres undefined) has what composite z-score?
Result: -0.197

Task: I would be grateful if you could share the reported composite z-score for `COC(=O)[C@@]1(Cc2ccccc2)[C@H]2c3cc(C(=O)N4CCCC4)n(Cc4cccc5ccccc45)c3C[C@H]2CN1C(=O)c1ccccc1` .
Result: 2.15

====

# Study System: Albumin (Bos taurus)
# Protocol Notes: bovine serum albumin binders on microarray, profiling panel, artefact control for SMM control protein annotation, biochemical, small-molecule microarray, Alexa647 label, 635/667 nm fluorescence (AID 1118);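 note: score merges 667 nm emission intensity and signal-to-noise per printed compound spot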
# Particulars: BSA-A647 binding, fluorescence 635 nm, higher = more signal
Entries and their composite z-score values follow.
Just the number, please, no unit attached.

Reference set (3 entries):
>  <Compound>
O=C1OCC=C[C@H]2OC34C=CCN(c5ccc6ccccc6c5)C(=O)[C@H]3N(CCCCCCO)C(=O)[C@@H]4[C@@H]12 (stereo not given in full)

>  <Study System>
Albumin (Bos taurus)

>  <composite z-score>
0.39

$$$$
>  <Compound>
CC(=O)N1Cc2ccccc2C[C@@]2(COC(c3ccc(OCCCO)cc3)=N2)C1=O

>  <Study System>
Albumin (Bos taurus)

>  <composite z-score>
0.707

$$$$
>  <Compound>
Cc1ccc(S[C@]2(C(=O)NC(C)C)CC(=O)N(Cc3ccccc3Cl)[C@@H]2c2ccc(CO)cc2I)cc1

>  <Study System>
Albumin (Bos taurus)

>  <composite z-score>
0.408

$$$$

Task: Need composite z-score, item `COCCOC(=O)N1C(=O)[C@@]2(c3cc(C#CCCO)ccc31)[C@H](C(=O)Nc1nc3ccccc3s1)[C@H]1C(=O)O[C@H](c3ccccc3)[C@H](c3ccccc3)N1[C@@H]2c1ccc(OCCO)cc1`
Result: 0.72

Task: I'd like to know its composite z-score. The compound in question is O=C(C1N=C(c2ccc(OCCCO)cc2)N(c2ccccc2)O1)N1CCOCC1 (stereo not given)
Result: 0.709
